src = patent US12172975B2

measuredOn: His-GST-TVMV-hRIPK1 (1-324) (Homo sapiens (Human))
Sequence (Q13546 1-324): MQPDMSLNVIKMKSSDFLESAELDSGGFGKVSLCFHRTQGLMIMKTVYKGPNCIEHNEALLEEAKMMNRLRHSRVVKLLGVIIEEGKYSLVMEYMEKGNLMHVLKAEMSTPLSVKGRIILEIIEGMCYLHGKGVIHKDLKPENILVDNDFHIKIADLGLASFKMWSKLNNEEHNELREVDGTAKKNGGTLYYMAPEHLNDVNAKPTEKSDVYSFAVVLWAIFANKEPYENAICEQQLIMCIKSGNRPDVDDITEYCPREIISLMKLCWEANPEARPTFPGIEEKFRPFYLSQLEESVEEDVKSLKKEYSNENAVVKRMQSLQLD
protocolText: RIPK1 HTRF Binding Assay
conditionLabel: read-out: RIPK1 HTRF (IC50); FRET probe displacement, 1 h at rt
Structures can show the parent of a compound that is named as a salt.
measuredParameter: pIC50
Reminder that pIC50 means the negative base-10 logarithm of the concentration expressed in mol/L.

Fill in the blank: the reported pIC50 of COc1ncc(-c2ccc3c(C(=O)NC4CC(=O)N(C(C)C)C4)n[nH]c3c2)cc1C(=O)NCc1ccccc1OC(F)(F)F (stereo not drawn) [Example 181, TFA] is ____.
7.57

Fill in the blank: the reported pIC50 of CNC(=O)c1n[nH]c2cc(-c3cnc(OC)c(C(=O)NCC4(COc5ccccc5)CC4)c3)ccc12 is ____.
8.34

Fill in the blank: the reported pIC50 of CNC(=O)c1n[nH]c2cc(-c3cnc(OC)c(C(=O)NC(C)c4ccccc4OC(F)(F)F)c3)ccc12 (single isomer, unassigned) is ____.
8.30

###

Catalogue of compounds with associated IC50
measuredOn: His-GST-TVMV-hRIPK1 (1-324) (Homo sapiens (Human))
protocolText: biochemical
Report only the number, with the unit nM understood.

Reference set (10 entries):
{"compound": "[2H]C([2H])([2H])N(C1CCC(NC(=O)c2n[nH]c3cc(-c4cnc(OC)c(C(=O)NCc5ccccc5OC(F)(F)F)c4)ccc23)CC1)C([2H])([2H])[2H] (centres unmarked)", "measuredParameter": "IC50", "measValue": 23}
{"compound": "[2H]C([2H])([2H])Oc1ncc(-c2ccc3c(C(=O)NC4CC4)n[nH]c3c2)cc1C(=O)N[C@H](C)CC(=O)OC(C)(C)C", "measuredParameter": "IC50", "measValue": 84}
{"compound": "CNC(=O)c1n[nH]c2cc(-c3cnc(OC)c(C(=O)NC4CCCC(c5ccccc5)C4)c3)ccc12 (single isomer, unassigned) [Example 21-2]", "measuredParameter": "IC50", "measValue": 5.9}
{"compound": "CNC(=O)c1n[nH]c2cc(-c3cnc(OC)c(C(=O)NC4CCCC(c5ccccc5)C4)c3)ccc12 (single isomer, unassigned) [Example 21-4]", "measuredParameter": "IC50", "measValue": 2}
{"compound": "[2H]C([2H])([2H])Oc1ncc(-c2ccc3c(C(=O)NC4CC4)n[nH]c3c2)cc1C(=O)N[C@@H](C)CC(=O)OC(C)(C)C", "measuredParameter": "IC50", "measValue": 36}
{"compound": "[2H]C([2H])([2H])NC(=O)c1n[nH]c2cc(-c3cnc(OC)c(-c4nnn(C(C)c5ccc(F)cc5)n4)c3)ccc12 (single isomer, unassigned) [Example 19-2]", "measuredParameter": "IC50", "measValue": 100}
{"compound": "[2H]C([2H])([2H])Oc1ncc(-c2ccc3c(C(=O)NC([2H])([2H])C([2H])([2H])[2H])n[nH]c3c2)cc1C(=O)N[C@H](C)c1ccccc1C(F)(F)F", "measuredParameter": "IC50", "measValue": 34}
{"compound": "[2H]C([2H])([2H])NC(=O)c1n[nH]c2cc(-c3cnc(OC)c(-c4nnn(C(C)c5ccc(F)cc5)n4)c3)ccc12 (single isomer, unassigned) [Example 19-1]", "measuredParameter": "IC50", "measValue": 42}
{"compound": "[2H]C([2H])([2H])Oc1ncc(-c2ccc3c(C(=O)NC([2H])([2H])C([2H])([2H])[2H])n[nH]c3c2)cc1C(=O)N[C@@H](C)c1cc(OC(F)(F)F)ccc1F", "measuredParameter": "IC50", "measValue": 17}
{"compound": "CNC(=O)c1n[nH]c2cc(-c3cnc(OC)c(C(=O)NC(C)c4ccccc4OC(F)(F)F)c3)cc(F)c12 (racemic)", "measuredParameter": "IC50", "measValue": 5.4}

Fill in the blank: the reported IC50 of [2H]C([2H])([2H])Oc1ncc(-c2ccc3c(C(=O)NC([2H])([2H])C([2H])([2H])[2H])n[nH]c3c2)cc1C(=O)N[C@H](C)c1cccc(C(F)(F)F)c1 is ____.
210

Fill in the blank: the reported IC50 of [2H]C([2H])([2H])Oc1ncc(-c2ccc3c(C(=O)NC(C)C)n[nH]c3c2)cc1C(=O)NC(C)c1ccccc1OC(F)(F)F (racemic) is ____.
100

Fill in the blank: the reported IC50 of [2H]C([2H])([2H])Oc1ncc(-c2ccc3c(C(=O)NC([2H])([2H])C([2H])([2H])[2H])n[nH]c3c2)cc1C(=O)N[C@@H](C)c1cc(C(F)(F)F)ccc1F is ____.
57

Fill in the blank: the reported IC50 of [2H]C([2H])([2H])Oc1ncc(-c2ccc3c(C(=O)NC4CC4)n[nH]c3c2)cc1C(=O)N[C@H](C)c1ccccc1C(F)(F)F is ____.
33

Fill in the blank: the reported IC50 of [2H]C([2H])([2H])Oc1ncc(-c2ccc3c(C(=O)NC([2H])([2H])C([2H])([2H])[2H])n[nH]c3c2)cc1C(=O)NCC[C@@H](O)c1ccc(Cl)cc1 is ____.
6.3

Fill in the blank: the reported IC50 of CNC(=O)c1n[nH]c2cc(-c3cnc(OC)c(C(=O)NC4CCCC(c5ccccc5)C4)c3)ccc12 (single isomer, unassigned) [Example 21-1] is ____.
3.5
